PROTOCOL_TEXT: gradient 5% acetonitrile 3 min, to 50% in 2 min, to 85% in 15 min, held 3 min, 100 µL/min
EXPERIMENTAL_PARAMETERS: column: Zorbax Extend-C18 2.1 x 50 mm; eluents: water / acetonitrile, 0.1% formic acid
QUANTITY: RP-LC retention time (s)

Example cases with answers are listed next.
Specify RP-LC retention time for "Cc1ccc(-c2nnc(Cc3nc(C(C)C)no3)o2)cc1C" and stop.
967

Return RP-LC retention time (reported value) for this molecule: "COc1ccc(S(=O)(=O)N2CCC(OCCOCc3ccccc3)CC2)cc1"
1050

Please list RP-LC retention time recorded for the molecule "CC(C)n1c(=O)sc2cc(S(=O)(=O)N3CCC(C(=O)NCCc4cccs4)CC3)ccc21"
910

Fill in RP-LC retention time for record "c1ccc([C@@H]2NCCO[C@H]2COc2ccccn2)cc1"
595

Input CC(C)(C)c1ccc(C(=O)NC2CCN(c3cc(-c4ccccc4)[nH]n3)C2)cc1 (stereo not given) , output reported RP-LC retention time.
872

Provide RP-LC retention time value for the following molecule: "Cn1c(C(=O)NCc2ccccc2)cc2sccc21"
892

Let me know recorded RP-LC retention time for "COc1ccc(S(=O)(=O)N2CCC(n3cnnc3C(C)C)CC2)cc1" , thanks.
694

Supply reported RP-LC retention time belonging to this molecule: "CCc1nnc([C@@H]2CC(F)(F)CN2C(=O)Cn2ccc(C)n2)o1"
646

a. CCNc1nc(NC(C)C)nc(-c2ccncc2)n1
b. CC1=NS(=O)(=O)N(Cc2ccccc2)C=C1C(=O)OCc1cc(F)ccc1F
Response body: label of entry with the larger RP-LC retention time; valid values a , b . Selection: enter the item's label.
b

====

PROTOCOL_TEXT: gradient 5% acetonitrile 3 min, to 50% in 2 min, to 85% in 15 min, held 3 min, 100 µL/min
EXPERIMENTAL_PARAMETERS: column: Zorbax Extend-C18 2.1 x 50 mm; eluents: water / acetonitrile, 0.1% formic acid
QUANTITY: RP-LC retention time (s)

Please list RP-LC retention time recorded for the molecule "Cc1ccc(-c2noc(Cn3ccn(-c4c(C)cccc4C)c(=O)c3=O)n2)cc1"
925

Note down RP-LC retention time recorded for CC1CN(c2ccccc2)c2nc3c(c(=O)n(CC(=O)O)c(=O)n3C)n2C1 (centres undefined)
709

Look up RP-LC retention time of Cn1c(C(=O)NCC2CCCO2)cc2c1CCN(Cc1cccc(F)c1)C2 (centres undefined) and report it.
618

P. CSc1nnc(NC(=O)c2ccccc2Br)s1
Q. Cc1ccc(-c2noc(CN3N=NC4C(=O)N(c5ccc6c(c5)CCC6)C(=O)C43)n2)cc1 (centres undefined)
For the pair P and Q , which entry has the numerically smaller recorded RP-LC retention time? Please reply using the label of the selected record.
P
(P: 737 s, Q: 1110 s)

1. C=CCSc1nnc(Cc2cc(=O)[nH]c(=O)[nH]2)n1-c1ccc(Cl)cc1
2. COc1ccc(OCC(=O)N2CCc3cc(-c4csc(C)n4)ccc32)cc1
Field: lower recorded RP-LC retention time (choose 1 or 2 ) Please indicate the selected item by its label.
1
(1: 624 s, 2: 958 s)

a. CCn1cc(-c2ccccc2)cc1C(=O)NCc1ccccn1
b. COC1CCC12CCN(S(=O)(=O)c1ccc(F)c(C)c1)CC2 (centres undefined)
Pick one: a or b . Which has the bigger RP-LC retention time number? # reply format: chosen label
b
(b: 1030 s, a: 703 s)

a. Fc1ccc(F)c(CN2CC(Oc3ccc(-c4noc(-c5ccncc5)n4)cc3)C2)c1
b. CCOC(=O)C(C)Oc1ccc2c(c1)O/C(=C\c1cc(Cl)cc3c1OCOC3)C2=O (centres undefined)
Consider entries a and b . Which has the numerically lower RP-LC retention time? Write down the label of the entry you select.
a

====

PROTOCOL_TEXT: gradient 5% acetonitrile 3 min, to 50% in 2 min, to 85% in 15 min, held 3 min, 100 µL/min
EXPERIMENTAL_PARAMETERS: column: Zorbax Extend-C18 2.1 x 50 mm; eluents: water / acetonitrile, 0.1% formic acid
QUANTITY: RP-LC retention time (s)

Examples from the recorded data:
Answer with reported RP-LC retention time of "CCc1cc(C(=O)N2CCN(C3CCN(C)CC3)CC2)nc2cc(-c3ccccn3)nn12"
562

Look up RP-LC retention time of "O=C(NC1CC1)c1ccc2ccnc(N3CCN(c4ccc(F)cc4)CC3)c2c1" and report it.
688

Supply measured RP-LC retention time of COc1cc2c(cc1OC)C1C(C(=O)Nc3ccc4c(c3)OCCO4)c3ccccc3C(=O)N1CC2 (centres undefined) in your reply.
772

For the compound "Cc1noc(C)c1S(=O)(=O)N1CCC2(CC1)CN(c1ccccc1)C2=O" , report RP-LC retention time.
924

Please give measured RP-LC retention time of the following entry: "O=C1NCCCCCN(Cc2ccc(F)cc2F)[C@H]2CCC[C@@H]12"
623

Note RP-LC retention time for the compound shown: "Cc1cc(C)cc(S(=O)(=O)N2CCc3c(c(-c4nnc(-c5ccccc5)o4)nn3C)C2)c1"
1020

Provide RP-LC retention time value for the following compound: "O=C(Cn1cnc2c(sc3nc(-c4ccccc4)ccc32)c1=O)NCc1ccc(F)cc1"
982

Output measured RP-LC retention time for this item: CCc1ccccc1NC(=O)C1CCN(S(C)(=O)=O)c2cc(Cl)ccc2O1 (centres undefined)
944

I. CCc1ccc(S(=O)(=O)N2CC(COC)C3(CCNCC3)C2)cc1 (centres undefined)
II. Cc1ccccc1CN1N=C(C(=O)N2CCCCC2)S(=O)(=O)c2ccccc21
Compare I and II by numeric RP-LC retention time and name the larger one. Returns: label corresponding to the selected item.
II
(II: 1010 s, I: 630 s)

====

PROTOCOL_TEXT: gradient 5% acetonitrile 3 min, to 50% in 2 min, to 85% in 15 min, held 3 min, 100 µL/min
EXPERIMENTAL_PARAMETERS: column: Zorbax Extend-C18 2.1 x 50 mm; eluents: water / acetonitrile, 0.1% formic acid
QUANTITY: RP-LC retention time (s)

Determine from records and report RP-LC retention time for "Cc1ccc(Nc2nc(C(=O)NC3CCCC3)nc3ccccc23)cc1"
853

Consider the compound "CC1CCN(S(=O)(=O)c2ccc(-c3nnc(C(=O)NCc4ccccc4)o3)cc2)CC1" and give its recorded RP-LC retention time.
1040

I. CCOC(=O)N1CCN(C(=O)Nc2nc(CC(=O)NC3CCCCCC3)cs2)CC1
II. CCOC(=O)c1sc2nc(NC(=O)COc3ccccc3)sc2c1C
Pick one, I or II : lowest reported RP-LC retention time. Use the label to indicate which entry you chose.
I

====

PROTOCOL_TEXT: gradient 5% acetonitrile 3 min, to 50% in 2 min, to 85% in 15 min, held 3 min, 100 µL/min
EXPERIMENTAL_PARAMETERS: column: Zorbax Extend-C18 2.1 x 50 mm; eluents: water / acetonitrile, 0.1% formic acid
QUANTITY: RP-LC retention time (s)

Past entries and their recorded results:
Could you please provide reported RP-LC retention time for "CN(C)CCCN1c2ccccc2Sc2ccc3ccccc3c21" ? Thanks!
772

Please list RP-LC retention time recorded for the molecule "O=C(c1ccncc1)N1CCC(n2nc(-c3ccsc3)ccc2=O)CC1"
624

Please report the measured RP-LC retention time for "COc1cccc(S(=O)(=O)N2CCC(c3noc(-c4cccc(F)c4)n3)CC2)c1"
1110

Respond only with RP-LC retention time recorded for Cc1nc(-c2ccc(OC3CCN(C(=O)NC4CCCCC4)C3)cc2)no1 (stereo unspecified)
845

A. CCn1cc(-c2nc(C(=O)Nc3ccc(OC)cc3)cs2)c2cccnc21
B. O=C(NCCCN1CCc2ccccc2C1)c1noc2c1CCCC2
For this pair, A and B , which shows a numerically higher RP-LC retention time? To answer, give the label that identifies your chosen option.
A

a. O=S(=O)(NC1CCCCC1)c1cc(-c2noc(C3CCCC3)n2)cs1
b. COc1ccccc1-c1cnn2c(N3CCN(c4cccc(C)n4)CC3)cc(C)nc12
Of a and b , which shows the smaller RP-LC retention time value? The response must carry the label of the picked entry.
b
(b: 638 s, a: 1230 s)

a. COc1ccc(Cl)cc1NC(=O)CSc1ccc(-c2ccccn2)nn1
b. O=C(NCc1ccc(N2CCOCC2)cc1)c1cn2ccccc2n1
Select the item with the higher value of RP-LC retention time from the options a and b listed. Which one? Tell me its label.
a
(a: 934 s, b: 591 s)

====

PROTOCOL_TEXT: gradient 5% acetonitrile 3 min, to 50% in 2 min, to 85% in 15 min, held 3 min, 100 µL/min
EXPERIMENTAL_PARAMETERS: column: Zorbax Extend-C18 2.1 x 50 mm; eluents: water / acetonitrile, 0.1% formic acid
QUANTITY: RP-LC retention time (s)

a. COc1cccc(NC(=O)Cn2ccnc2-c2ccnc(N3CCCC3)c2)c1
b. Cc1cc2cc(CNC(=O)C(=O)c3c[nH]c4ccccc34)ccc2[nH]1
From the items above, decide which of a and b has the lower RP-LC retention time reading. Selection: enter the item's label.
a
(a: 602 s, b: 878 s)
